// data source = PubChem BioAssay

protocol_text: growth suppression of PTEN-deleted HCT116, pilot screen, cell-based, HCT116 clonal line, CellTiter-Glo (AID 824);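 further: 0% = 20 µM Hyamine control and 100% = vehicle cell control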
test_parameters: 60 h, at 10 µM, hits give low values
Inconclusive results are not listed.
Please respond with reported viability for every item in the list.
Write the number in % without appending the unit.

For c1ccc(-n2nnnc2-n2ccnc2)cc1 the compound record lists viability as 109

Documented viability of C=CCc1cc(/C=N/n2cnnc2)cc(OCC)c1O : 94.7

What the record says about Cc1cc(NC(=O)CSCc2nc(-c3cccc(Cl)c3)oc2C)no1 : viability is 95.5

Notebook: COc1cccc(N2CCN(C(=O)c3ccc4nc(N5CCCCC5)sc4c3)CC2)c1 , viability read as 79.2

Reported viability for Cc1sc2ncnc(Sc3nnc4sc5ccccc5n34)c2c1C was 65.2

The recorded viability for O=C(C1CC1)N1CCc2cc(Br)cc(S(=O)(=O)N3CCCCCC3)c21 is 82.1

Sample CSC1=NCCN1C(=O)c1ccc(Br)o1 ; viability observed: 94.5

viability in this record for CCSc1nsc(SCC)c1C(N)=O : 102

// recorded viability for CCOC(=O)c1sc(NC(C)=O)cc1C : 96

Entry under test: Cn1cnnc1SCCC(=O)Nc1ccccc1 . Its viability was 99.5

Notebook: CCOc1ccccc1N(CC(=O)Nc1ccc2c(c1)OCO2)S(C)(=O)=O , viability read as 100

Form: compound = CCOC(=O)c1cnc2c(C#N)c(C)nn2c1-c1ccccc1 ; viability = 92.7
